tested on: LOX IMVI; assay: NCI tumour cell line growth inhibition, 48 h
Activity calls are given as the source filed them. Cut-off read from the data, not from the text of the source: active = GI50 up to about 1.1 µM and inactive = higher. *1 amine or outer side, *2 acyl side, *3 side chain or, on linkers, in order; H or OH if unused. Where a SMILES comes first, the peptide text is derived from it. Bridges are numbered along the chain shown (N, C = ends). [ ]: non-standard residue; d: D form. X36 = CC[C@H](C)[C@@H](N[*:1])[C@@H](O)CC(=O)O[C@H](C(=O)[C@H](C)C(=O)[*:2])C(C)C; NMeY = CN[C@@H](Cc1ccc(O)cc1)C(=O)O
Just give me one of these, please: label 1 for active, label 0 for inactive

A selection of reference data follows.
MOLECULE	LABEL_CLASS
CCCCOP(=O)(OCCCC)C(NS(=O)(=O)c1ccccc1)(C(=O)OCC)C(F)(F)F (centres undefined)	label 0
O=C1OC(c2ccccc2)=N/C1=C\c1cccc2ccccc12	label 0

How did this test come out for CCCCCCC(CCl)c1sc(-c2csc(CCNC(=O)OC(C)(C)C)n2)nc1C(=O)OC (centres undefined) ?
label 0

How did this test come out for NC1CC(=O)c2ccccc21 (centres undefined) ?
label 0

How did this test come out for CCCC(=O)Nc1cc(/C=C/C(=O)N2CC(CCl)c3c2cc(O)c2[nH]cc(C)c32)n(C)c1 (centres undefined) ?
label 1

How did this test come out for Nc1ncnc2c1nnn2C1OC(CO)C(O)C1O (centres undefined) ?
label 0

How did this test come out for "O=C(NCC(O)CNC(=O)C(F)(F)F)C(F)(F)F" ?
label 0

How did this test come out for CC[C@H](C)[C@H]1NC(=O)[C@@H](N)[C@@H](C)OC(=O)[C@H](Cc2ccc(OC)cc2)N(C)C(=O)[C@@H]2CCCN2C(=O)[C@H](CC(C)C)NC(=O)[C@@H](C)C(=O)[C@H](C(C)C)OC(=O)C[C@@H]1O (H-T[X36]LP[NMeY](Me); ester 1-C) ?
label 0

How did this test come out for Cc1ccccc1SC(/C=C/NNC1=NN=C(c2ccccc2)C(c2ccccc2)N1)c1ccccc1 (centres undefined) ?
label 0

How did this test come out for "CCN(CC)CCCNc1c2cc(OC)ccc2nc2cccc([N+](=O)[O-])c12" ?
label 1

How did this test come out for CCNC(=O)C(C)C1CCC2(C)C=CC(=O)C(C)=C2C1O (centres undefined) ?
label 0

How did this test come out for "Cc1nc2ccc(N)cc2nc1O" ?
label 0

How did this test come out for O=C(O)OC12CCCCCC1C(=O)C1CCCCC12 (centres undefined) ?
label 0

How did this test come out for "CO/C(=N\N=C\c1ccc(Cl)cc1Cl)c1ccncc1" ?
label 0

How did this test come out for "C#CC(=O)OCC#CCOC(=O)C#C" ?
label 1

How did this test come out for "O=C(O)CN1CCN2CCOCCOCCN(CC1)CCN(CC(=O)O)CC2" ?
label 0

How did this test come out for "COc1ccc2c(c1)[C@@]13CCN4CC5=CCO[C@H]6CC(=O)N2[C@H]1[C@H]6[C@H]5C[C@H]43" ?
label 0

How did this test come out for "Oc1nc2c(c(-c3ccccc3Cl)n1)COC/C2=C\c1ccccc1Cl" ?
label 0

How did this test come out for "Cc1cc(O)c2c3c(ccc2c1)C(=O)c1c(O)cccc1C3=O" ?
label 0

How did this test come out for "CC(C)(/N=N/C(C)(C)C1=NCCN1)C1=NCCN1" ?
label 0

How did this test come out for CCOC(=O)C12C(C(=O)OC)=C(C)N(NC(=O)Nc3ccccc3)C1(N)N(NC(=O)Nc1ccccc1)C(C)=C2C(=O)OC (centres undefined) ?
label 0
